Recorded values, source PubChem BioAssay AID429.

So I've got a bunch of compounds here, and I need their inhibition values.
Molecular target: Heat shock protein HSP 90-alpha (Homo sapiens) (UniProt P07900)
Assay: tumor Hsp90 inhibitors, primary screen, cell lysate, fluorescence polarization, NCI-N417 lysate (AID 429);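 further: 0% = tracer plus lysate wells and 100% = tracer alone without lysate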
Conditions: NCI-N417 lysate Hsp90, Cy3B-geldanamycin FP displacement; at 30 µM; stronger effect = higher value
Screen size: about 64,000 compounds; about 220 (0.34%) were called active. The list comes from a sample in which actives are over-represented; it also holds close analogues and randomly drawn compounds.
Numbers only, in %.

O=S1(=O)CCN2C(=N1)SC1=C2CCN(Cc2ccccc2)C1 :: 1.02

Hey, quick one: what's inhibition for each of these?
1. COc1ccc(Cn2cccc(NC(=O)Nc3ccc(C#N)cc3)c2=O)cc1
2. CCSc1nc2c(c(=O)[nH]1)C(c1cccnc1)C(C(=O)OC(C)C)=C(C)N2 (stereo not drawn)
3. COc1cc(Cl)cc(C2NC(=O)NC(C)=C2C(=O)NCc2ccccc2)c1O (stereo not drawn)

Response given:
-1.69
-0.2
-1.82

====

Biological target: Heat shock protein HSP 90-alpha (Homo sapiens)
Assay: tumor Hsp90 inhibitors, primary screen, cell lysate, fluorescence polarization, NCI-N417 lysate (AID 429);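 further: 0% = tracer plus lysate wells and 100% = tracer alone without lysate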
Conditions: NCI-N417 lysate Hsp90, Cy3B-geldanamycin FP displacement; at 30 µM
Among all 64,000 compounds or so, about 220 (0.34%) were called active.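 The calls were made as follows: active = inhibition above 50%; inactive = the rest.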 Only a selection was taken, and actives are over-represented in it overall.
The categories you may choose from are 1.0 = active, 0.0 = inactive

CCC(=O)Nc1cccc(NC(=O)CSc2nnc(-c3ccc(NS(C)(=O)=O)cc3)n2C)c1 :: 0.0

Challenge: GET /call?item= CCOC(=O)C1CCCN(Cc2nc(N)nc(Nc3ccc(C)cc3)n2)C1 (stereo unspecified) returns the recorded outcome of this test.
Response given: 0.0

Challenge: Record lookup: outcome of this test for N#C/C(=C\c1ccc(O)c(O)c1)C(=O)NCc1ccccc1 ?
Response given: 1.0

Challenge: Any idea what this test logged for CSCCC(NS(=O)(=O)/C=C/c1ccccc1)C(=O)N1CCC(C)CC1 (stereo unspecified) ?
Response given: 0.0

Challenge: Give the logged outcome of this assay for the following compound: CS(=O)(=O)N1CCCC(C(=O)N2CCOCC2)C1 (stereo unspecified)
Response given: 0.0

Challenge: What outcome does the record of this test show for CC(C)C1C2=C(CC(C)(C)CC2=O)ON1c1ccccc1 (stereo unspecified) ?
Response given: 0.0

Challenge: What did this assay record as the result for CCNC(=O)CCc1nc(-c2ccc(C(C)(C)C)cc2)no1 ?
Response given: 0.0

Challenge: How was Cc1ccc(S(=O)(=O)N(C)CC(=O)NC2CCCC2)cc1 classified in this test?
Response given: 0.0

Challenge: Please let me know the test result on file for CCOc1ccc(CCNC(=O)C2CCN(c3ccc(N4CCOCC4)nn3)CC2)cc1OCC .
Response given: 0.0

Challenge: # fetch the recorded call for O=c1nc2s/c(=C\c3ccco3)c(=O)n2nc1Cc1ccccc1 here
Response given: 0.0

Challenge: Lab log entry: CCOc1ccc(N(CC(=O)NCc2ccc(OC)cc2)S(=O)(=O)c2c(C)noc2C)cc1 — outcome as called in the assay?
Response given: 0.0

====

Provide the reported inhibition of each item.
Target: Heat shock protein HSP 90-alpha (Homo sapiens) (UniProt P07900)
Assay: tumor Hsp90 inhibitors, primary screen, cell lysate, fluorescence polarization, NCI-N417 lysate (AID 429);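 further: 0% = tracer plus lysate wells and 100% = tracer alone without lysate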
Details: NCI-N417 lysate Hsp90, Cy3B-geldanamycin FP displacement; at 30 µM; stronger effect = higher value
The whole screen tested about 64,000 compounds, of which about 220 (0.34%) were called active. The list comes from a sample in which actives are over-represented; it also holds close analogues and randomly drawn compounds.
Numbers only, in %.

CCCN(CCc1ccccc1)C1CCc2c(O)cccc2C1 (stereo unspecified) :: -0.71
CCCC(=O)N(CCc1ccccc1)Cc1nc2ccccc2c(=O)[nH]1 :: -3.96
O=C(CCc1ccccc1)Nc1ccc(NC(=O)C2CC2)nc1 :: -2.83
CN(C)CCOC(=O)C(c1ccccc1)C1(O)CCCC1 (stereo unspecified) :: -3.68

Dear colleague, could you please provide inhibition for the compounds listed below?
1. C=CCNc1ncnc2ccc(Br)cc12
2. CCn1cc(C(=O)N2CC=C(c3ccccc3)CC2)c(=O)c2ccc(C)nc21
3. Cc1ccc(C(c2sc3nc(C)nn3c2O)N2CCN(c3ccc(F)cc3)CC2)cc1 (stereo unspecified)
4. COc1ccc(C(=O)NCc2cn3ccccc3n2)cc1
5. O=S1(=O)CC(NCc2ccccc2)C(Nc2ccc(Cl)cc2)C1 (stereo unspecified)
6. CCCCCC(O)c1cccc(OCc2ccc3ccccc3n2)c1 (stereo unspecified)
7. O=C(Nc1ccccc1-c1nnn(CC(=O)N2CCN(c3ccccc3)CC2)n1)c1cccs1

Response given:
1: -2.85; 2: -3.28; 3: 2.37; 4: 2.11; 5: 1.54; 6: 5.96; 7: 0.39

====

Molecular target: Heat shock protein HSP 90-alpha (Homo sapiens) (UniProt P07900)
Assay: tumor Hsp90 inhibitors, primary screen, cell lysate, fluorescence polarization, NCI-N417 lysate (AID 429);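 further: 0% = tracer plus lysate wells and 100% = tracer alone without lysate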
Settings: NCI-N417 lysate Hsp90, Cy3B-geldanamycin FP displacement; at 30 µM; stronger effect = higher value
Screen size: about 64,000 compounds; about 220 (0.34%) were called active. What follows is part of a selection rich in actives, with near analogues and random picks from the rest.
Assignment: determine reported inhibition for the given compounds.

# batch size: 6; output inhibition per entry
1. O=c1cc(CSc2ccccn2)nc(N2CCN(c3ccccc3)CC2)[nH]1
2. CCCC(C(=O)NCc1ccco1)N(C(=O)CNS(=O)(=O)c1ccccc1)C1CCCC1 (stereo unspecified)
3. Cc1coc2c(O)cc3c(c12)OC1(N2CCCCC2)C(=O)NCCCC31 (stereo unspecified)
4. COc1cccc(CN2C(=O)CCC2(C)C(=O)NC2CCCCCC2)c1 (stereo unspecified)
5. CCOc1ccccc1N(CC(=O)NC1CCCCC1)C(=O)CCCC(=O)Nc1ccccn1
6. O=c1cc(-c2ccccc2)[nH]c2nc(Cl)ccc12

Response given:
["-2.49% (inactive)", "-1.3% (inactive)", "96.8% (active)", "-0.1% (inactive)", "-0.59% (inactive)", "-1.33% (inactive)"]

====

Molecular target: Heat shock protein HSP 90-alpha (Homo sapiens)
Assay: tumor Hsp90 inhibitors, primary screen, cell lysate, fluorescence polarization, NCI-N417 lysate (AID 429);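 further: 0% = tracer plus lysate wells and 100% = tracer alone without lysate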
Conditions: NCI-N417 lysate Hsp90, Cy3B-geldanamycin FP displacement; at 30 µM; stronger effect = higher value
Screen size: about 64,000 compounds; about 220 (0.34%) were called active. The entries come from a sample that favours actives as a whole.
reported.metric: inhibition (%)
Answers are plain numbers, in %.

Observe how each entry below is paired with its result.
CCN(CC)C(=O)CSc1nnc(-c2ccc(S(=O)(=O)NCc3ccccc3Cl)cc2)o1 :: 1.83
CS(=O)(=O)c1ccc2nc(NC(=O)CN3CCCCCC3)sc2c1 :: -0.64
O=C(O)CCC(=O)N(Cc1ccco1)c1nc(-c2ccccc2)cs1 :: -1.19
CC[C@@H]1Cc2cc(O)ccc2C2=C1c1ccc(O)cc1C[C@H]2CC :: 14.4
COc1ccc(-c2nc(CS(=O)CC(=O)NCc3ccccn3)c(C)o2)cc1 (stereo not drawn) :: 71.4
Cc1ccc(C)c(NC(=O)C2CC(=O)N(C(C)C)C2)c1 (stereo not drawn) :: -3.18
COc1cc(C2C(C(=O)Nc3ccc(F)cc3)=C(C)Nc3nc(CCCO)nn32)cc(OC)c1OC (stereo not drawn) :: -1.54
CC1CCCN(C(=O)c2ccc3c(c2)C(=O)N(CCC2=CCCCC2)C3=O)C1 (stereo not drawn) :: -1.14

Give me inhibition for each of these compounds, listed below.
1. COc1ccc(-c2nc(CS(=O)CC(=O)N3CCc4ccccc4C3)c(C)o2)cc1 (stereo not drawn)
2. CNc1ncnc2c1ncn2[C@@H]1O[C@H](CO)[C@H](O)C1O (stereo partly drawn)

Response given:
[0.64, -3.44]

// for each compound in input: emit inhibition
1. O=C(CCC(=O)OCC(F)(F)C(F)F)NCc1ccccc1
2. O=C(NCCN1CCOCC1)c1c(F)c(F)c(F)c(F)c1F
3. O=C(CCC(=O)c1cccs1)NCc1ccccc1
4. Cc1cccn2c(=O)c3cc(C(=O)N4COCC4(C)C)n(C)c3nc12

Response given:
-3.91
-0.16
-2.27
0.48

For each of the items listed, what is its inhibition?
1. Cc1nc2ccc(S(=O)(=O)NCC(=O)O)cc2s1
2. CCOC(=O)CSC1=C(C#N)C(c2sccc2C)CC(=O)N1 (stereo not drawn)

Response given:
[-1.11, -2.64]

====

Molecular target: Heat shock protein HSP 90-alpha (Homo sapiens) (UniProt P07900)
Test: tumor Hsp90 inhibitors, primary screen, cell lysate, fluorescence polarization, NCI-N417 lysate (AID 429);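 further: 0% = tracer plus lysate wells and 100% = tracer alone without lysate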
Conditions: NCI-N417 lysate Hsp90, Cy3B-geldanamycin FP displacement; at 30 µM
Screen size: about 64,000 compounds; about 220 (0.34%) were called active.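 How the source made its calls: active means inhibition above 50%; inactive means the rest.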 The list comes from a sample in which actives are over-represented; it also holds close analogues and randomly drawn compounds.
Hi! Could you answer with just one of these? TRUE = active, FALSE = inactive

CN(C)c1nc(N)nc(CSc2nnnn2-c2cccc3ccccc23)n1 :: FALSE
COc1ccccc1Oc1ccc(S(=O)(=O)Nc2cccnc2)cc1 :: FALSE
CCNc1nc(N)nc(Oc2ccc(OCC)nn2)n1 :: FALSE
C=C(C)c1cccc(C(C)(C)NC(=O)N2CCN(c3ncccn3)CC2)c1 :: FALSE
CCOc1cccc(/C(O)=C2/C(=O)C(=O)N(CCOC)C2c2ccncc2)c1 (centres undefined) :: FALSE

Challenge: For OC[C@H]1O[C@@H](n2cnc3c(N[C@H]4CC5CCC4C5)ncnc32)[C@H](O)[C@@H]1O (some centres undefined) , what call appears in the results of this test?
Response given: FALSE

Challenge: In this assay, the call recorded for COc1ccc(-c2nnn(Cc3nc(N)nc(N4CCCCC4)n3)n2)cc1 was what?
Response given: FALSE

Challenge: Which result was noted for this compound in the test: CCC(Sc1nncn1C)C(=O)Nc1nnc(-c2ccc(Cl)cc2)s1 (centres undefined)
Response given: FALSE
